Molecular target: Interleukin-1 receptor-like 1 (Homo sapiens) (UniProt Q01638)
Sequence (Q01638 whole entry, looked up): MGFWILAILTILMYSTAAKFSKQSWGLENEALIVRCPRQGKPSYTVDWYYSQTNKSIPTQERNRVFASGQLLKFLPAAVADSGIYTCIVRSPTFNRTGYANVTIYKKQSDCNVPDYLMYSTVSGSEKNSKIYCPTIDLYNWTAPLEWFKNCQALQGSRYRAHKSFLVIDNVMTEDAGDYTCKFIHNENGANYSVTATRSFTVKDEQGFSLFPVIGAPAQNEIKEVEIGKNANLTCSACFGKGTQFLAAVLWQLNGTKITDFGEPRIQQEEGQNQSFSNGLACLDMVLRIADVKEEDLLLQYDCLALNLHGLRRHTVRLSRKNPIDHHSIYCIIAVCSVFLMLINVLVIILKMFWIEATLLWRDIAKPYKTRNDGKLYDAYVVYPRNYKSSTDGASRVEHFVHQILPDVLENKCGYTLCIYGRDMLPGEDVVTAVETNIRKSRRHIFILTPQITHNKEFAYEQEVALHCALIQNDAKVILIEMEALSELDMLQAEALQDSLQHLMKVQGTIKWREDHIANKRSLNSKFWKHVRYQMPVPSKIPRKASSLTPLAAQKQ
Assay: inhibitors of human ST2 (IL1RL1) binding to IL-33, primary screen, biochemical, AlphaLISA (AID 1259354)
Details: AlphaLISA ST2-Fc/biotin-IL-33 interaction, 1 h; at 17 µM
Out of some 78,000 compounds screened, about 1,800 (2.3%) were called active. Roughly 27% stayed inconclusive and do not appear here. Cut-off read from the data, not from the text of the source: active = inhibition above about 30%; inconclusive = mostly about 10% to 28%; inactive = weaker than that. What follows is part of a selection rich in actives, with near analogues and random picks from the rest.
Classes used: active, inactive

COMPOUND	CATEGORY_LABEL
Cc1cc(NCCN2CCCCCC2)n2c(nc3ccccc32)c1C#N	active
CSCCNC(=O)CC1C(=O)NCCN1Cc1ccccc1 (stereo unspecified)	inactive
Cc1cc2c(Nc3cccc(Cl)c3C)ncnc2s1	inactive
CCOc1ccc(NC(=O)CSc2nc3c(c(=O)n2-c2ccccc2)SCC3)cc1	inactive
O=[N+]([O-])c1ccc(O)c(C=Nc2ccc3oc(-c4ccccc4)nc3c2)c1	inactive
Cc1c(CCC#N)c(-n2ccnc2)n2c(nc3ccccc32)c1C#N	inactive

###

Target: Interleukin-1 receptor-like 1 (Homo sapiens)
Experiment: inhibitors of human ST2 (IL1RL1) binding to IL-33, primary screen, biochemical, AlphaLISA (AID 1259354)
Settings: AlphaLISA ST2-Fc/biotin-IL-33 interaction, 1 h; at 17 µM
Out of some 78,000 compounds screened, about 1,800 (2.3%) were called active. Inconclusive results (about 27%) are left out. Cut-off read from the data, not from the text of the source: active = inhibition above about 30%; inconclusive = mostly about 10% to 28%; inactive = weaker than that. This excerpt belongs to a sample that is enriched for actives.
Labels: 1 (yes) = active, 0 (no) = inactive

MOLECULE	CATEGORY_LABEL
COc1ccc(-c2cnc(N)cn2)cc1C	0 (no)
O=C(Nc1ccc([N+](=O)[O-])cc1Br)c1ccncc1	0 (no)
O=C1CC2(CCCCC2)Oc2ccc(OCC(=O)N3CCOCC3)cc21	0 (no)
COc1ccc(-c2cccc(-n3cccn3)c2)cc1C(N)=O	0 (no)
c1cc(-c2nc3ccncc3[nH]2)ccn1	0 (no)
C=CCn1c(=O)c2c(nc3n2CCN3c2ccc(C)cc2)n(C)c1=O	0 (no)
CCOC(=O)CSC1=C(C#N)C(c2ccccc2)CC(=O)N1 (stereo not drawn)	0 (no)
Cc1cc(/C=C2/C(=O)NC(=O)N(C)C2=O)c(C)n1-c1ccc(Cl)c(Cl)c1	1 (yes)
Cc1ccc(N2NC(=O)/C(=C/c3ccc4c(c3)OCO4)C2=O)cc1Cl	0 (no)
CC(=O)c1ccc(NC(=O)CCC2CCCCC2)cc1	0 (no)
Cn1c(=O)c2c(nc(Cl)n2CC(=O)NC(C)(C)C)n(C)c1=O	0 (no)
O=C(C(NS(=O)(=O)c1cccs1)c1ccccc1)N1CCc2ccccc21 (stereo not drawn)	0 (no)
O=C(C1CCCN(Cc2c[nH]c3ccccc23)C1)N1CCCCCC1 (stereo not drawn)	0 (no)
Brc1ccc(CSc2cccc3cccnc23)cc1	0 (no)
COCCNC(=O)C1C2C=CC3(CN(Cc4ccccc4Cl)C(=O)C13)O2 (stereo not drawn)	0 (no)
CCC(C)(C)C1CCc2c(sc(NC(=O)c3cc(OC)c(OC)c(OC)c3)c2C(N)=O)C1 (stereo not drawn)	0 (no)
COc1ccc(C(=O)NC(Nc2ccccc2Cl)C(Cl)(Cl)Cl)cc1 (stereo not drawn)	0 (no)
CCOC(=O)c1c(C)n(C)c2ccc(OC(=O)c3ccc(OC)cc3)cc12	0 (no)
CCc1nc(C)ccc1OCC(=O)N1CCC2(CN(C)C(=O)O2)C1 (stereo not drawn)	1 (yes)
CCSc1nnc(NC(=O)Nc2ccc(Cl)cc2)s1	0 (no)
CCCc1n[nH]c(=O)n1-c1ccccc1Cl	0 (no)
O=C(Nc1ccc(Cl)cc1)Nc1ccc2n(c1=O)C[C@H]1C[C@@H]2CN(C(=O)Cc2cccs2)C1	0 (no)
OCCNc1c(F)c(F)nc(N2CCOCC2)c1F	0 (no)

###

Target: Interleukin-1 receptor-like 1 (Homo sapiens) (UniProt Q01638)
Assay: inhibitors of human ST2 (IL1RL1) binding to IL-33, primary screen, biochemical, AlphaLISA (AID 1259354)
Settings: AlphaLISA ST2-Fc/biotin-IL-33 interaction, 1 h; at 17 µM
The campaign covered roughly 78,000 compounds. About 1,800 (2.3%) were called active. About 27% were inconclusive and are not listed. Rule as the data show it: active = inhibition above about 30%; inconclusive = mostly about 10% to 28%; inactive = weaker than that. What follows is part of a selection rich in actives, with near analogues and random picks from the rest.
Outcomes: active, inactive

MOLECULE	CATEGORY_LABEL
CC1CCN(c2ccc(C(=O)O)cc2[N+](=O)[O-])CC1	inactive
Cc1cccc(OCC(=O)Nc2cc(C(F)(F)F)ccc2Cl)c1	inactive
Cc1cccc(OCC(=O)Nc2ccc(-c3nc4ncccc4o3)cc2)c1	inactive
CC(CN1CCC(C(N)=O)CC1)c1ccccc1 (stereo not drawn)	inactive
Cc1ccc(NC(=O)CNCCOc2ccccc2)c(C)c1	inactive
COc1ccc(C2=NN3COc4ccc(Br)cc4C3C2)cc1 (stereo not drawn)	active
Cn1c(=O)cc(SCC(=O)N2CCN(C(=O)c3ccco3)CC2)c2ccccc21	inactive
COc1ccc(C2CC(c3ccc([N+](=O)[O-])cc3)=NN2)cc1 (stereo not drawn)	active
COc1cc2c(C(=O)N3CCCC3)cn(C)c(=O)c2cc1OC	inactive
O=C(Nc1c(-c2ccc(F)cc2)nc2ccccn12)c1cccc(F)c1	inactive
Cc1cccc2nc(-c3ccco3)c(Nc3ccc(F)cc3)n12	inactive
CN(Cc1ccccc1)C(=O)C1(S(=O)(=O)c2ccc(Cl)cc2)CC1	inactive
COc1ccc(CC(=O)Nc2ccc(-c3nnc(-c4ccccc4)o3)cc2)cc1	inactive
COc1ccc(Nc2nc(Cl)nc(NCc3ccco3)n2)cc1	inactive
O=C(CN1CCN(Cc2cccc(Cl)c2)C1=O)N1CCCC1	inactive
Cc1cc(C)c2c(CC(=O)NCc3cccnc3N3CCOCC3)coc2c1	inactive
O=C(COc1cccc([N+](=O)[O-])c1)Nc1ccc(-c2nnc(-c3ccco3)o2)cc1	active
O=[N+]([O-])c1cc(Cl)ccc1N1CCN(c2ccc([N+](=O)[O-])c3cccnc23)CC1	active
CC(=O)Nc1ncc2c(n1)CC(c1ccc(F)cc1)CC2=O (stereo not drawn)	inactive
CCOC(=O)c1sc2nc3n(c(=O)c2c1C)N=C(c1ccccc1)CS3	inactive
COc1ccc(C2NC(=O)N(C)C(C)=C2[N+](=O)[O-])cc1 (stereo not drawn)	inactive
CN(C)c1ccc(/C=C2\N=C(c3cccc(I)c3)OC2=O)cc1	inactive
COc1ccc(Nc2nc(Nc3ccc(OC)cc3)nc(N3CCNCC3)n2)cc1	active

###

Molecular target: Interleukin-1 receptor-like 1 (Homo sapiens)
Assay: inhibitors of human ST2 (IL1RL1) binding to IL-33, primary screen, biochemical, AlphaLISA (AID 1259354)
Details: AlphaLISA ST2-Fc/biotin-IL-33 interaction, 1 h; at 17 µM
In all, about 78,000 compounds went through this assay and about 1,800 (2.3%) were called active. Inconclusive results (about 27%) are left out. No stated cut-off is given here; in the data, active means inhibition above about 30%; inconclusive means mostly about 10% to 28%; inactive means weaker than that. The entries come from a sample that favours actives as a whole.
Outcome codes: Y (active), N (inactive)

COMPOUND	CATEGORY_LABEL
Cc1cccc(NC(=O)c2ccc([N+](=O)[O-])o2)c1	Y
Nc1ccc(Oc2ccc(Cl)cc2)cc1	Y
O=C(CN1CCCN(Cc2ccccc2)S1(=O)=O)NCCc1ccccc1	N
CCOc1ccc(Br)c(/C=C2\C(=O)Nc3ccc(Br)cc32)c1	Y
CC1CCN(S(=O)(=O)c2ccc(Cl)c(C(=O)Nc3ccccc3[N+](=O)[O-])c2)CC1	Y
COc1ccc(S(=O)(=O)Nc2c(C)n(C)n(-c3ccccc3)c2=O)cc1	N
Cc1cccc(NC(=O)CN2C(=O)CC(c3ccccc3)=Nc3ccccc32)c1	N
CCOc1cc(/C=C2\C(=O)NC(=O)N(c3ccc(Br)cc3)C2=O)ccc1O	N
COc1ccc(N=Cc2c(O)n(-c3ccccc3C)c(=O)c3ccccc23)cc1	Y
Cc1ccc(NC(=O)c2ccc(Br)o2)c(C)c1	N
COc1ccc(N=Cc2ccc3ncccc3c2)cc1	N
COc1ccccc1C(=O)Nc1ccc2c(c1)NC(=O)CC2c1ncc[nH]1 (configuration not stated)	N
COc1cc(NS(=O)(=O)c2ccc3c(c2)CCN3C(=O)C2CC2)cc(OC)c1	N
O=c1c2c(nc(SCc3ccc(Cl)cc3)n1-c1ccccc1)CCS2	Y
Cc1ccc(N2C(=O)CC(Nc3ccc(N4CCOCC4)cc3)C2=O)c(Br)c1 (configuration not stated)	Y
COc1cccc(N2CCN(S(=O)(=O)c3ccc4c(c3)c(=O)n(C)c(=O)n4C)CC2)c1	N
CN1CCN(C(=O)CC2(c3ccccc3Cl)CC(=O)N(C3CCCC3)C2=O)[C@@H](c2ccccc2)C1 (some centres not stated)	N
O=C(Nc1cccc(-c2cccc(Cl)c2)c1)C1CCN(C(=O)c2ccccc2)CC1	N
CNc1nc2c(C)cccn2c(=O)c1C=Nc1ccc(OC)cc1	Y
O=C(Nc1ccccc1-c1ccccc1)c1ccccc1[N+](=O)[O-]	N
COc1cc(/C=C2\C(=O)Nc3ccc(Br)cc32)ccc1O	N
C=CCNC(=O)c1cc2c(=O)n3cccc(C)c3nc2n1C	N
